tested on: Mycobacterium intracellulare; experiment: Antimicrobial activity against Mycobacterium intracellular ATCC 23068 by twofold serial macrobroth dilution assay; format: functional
Measured MIC of individual entries
Property: MIC

[[record]]
entry_smiles = "COc1cc(OC)c2c(c1CC=C(C)C)O[C@H](c1c(CC=C(C)C)cc(OC)c(OC)c1CC=C(C)C)[C@@H](O)C2=O"
property = "MIC"
result = "12.5 µg/mL"

[[record]]
entry_smiles = "CN[C@@H]1[C@H](O[C@H]2[C@H](O[C@H]3[C@H](O)[C@@H](O)[C@H](N=C(N)N)[C@@H](O)[C@@H]3N=C(N)N)O[C@@H](C)[C@]2(O)C=O)O[C@@H](CO)[C@H](O)[C@H]1O"
property = "MIC"
result = "1.56 µg/mL"

[[record]]
entry_smiles = "COc1cc(CC=C(C)C)c(-c2oc3c(CC=C(C)C)c(OC)cc(OC)c3c(=O)c2OC)c(CC=C(C)C)c1OC"
property = "MIC"
result = "25 µg/mL"

[[record]]
entry_smiles = "CC(C)=CCc1cc(O)c(O)c(CC=C(C)C)c1[C@H]1Oc2c(CC=C(C)C)c(O)cc(O)c2C(=O)[C@@H]1O"
property = "MIC"
result = "6.25 µg/mL"

[[record]]
entry_smiles = "COc1cc(CC=C(C)C)c([C@H]2Oc3c(CC=C(C)C)c(OC)cc(O)c3C(=O)[C@@H]2O)c(CC=C(C)C)c1O"
property = "MIC"
result = "25 µg/mL"

